Tested on: NCI-H23
test_name: NCI tumour cell line growth inhibition, 48 h
Activity calls are given as the source filed them. No stated cut-off is given here; in the data, active = GI50 up to about 1.1 µM and inactive = higher.
Reported GI50 values are given for each entry in this list.

// solved cases for GI50 follow
INSERT INTO measurements (compound, subject_of_test, data_value) VALUES
  ('CC1=CC(c2ccccc2)n2c(nc3cc4ccccc4cc32)N1 (stereo not given)', 'NCI-H23', '> 100 µM (inactive)'),
  ('Cc1cccc(NC(=O)C(=O)C(C(=O)c2ccc3ccccc3c2)C2OC(=O)c3ccccc32)c1C (stereo not given)', 'NCI-H23', '8.99 µM (inactive)'),
  ('C=CCn1c(=O)c(C)cn(/C(=C/C(=O)OCC)C(=O)OCC)c1=O', 'NCI-H23', '16.1 µM (inactive)'),
  ('OCc1ccc(C2CC(c3ccco3)=NN2c2ccccc2)o1 (stereo not given)', 'NCI-H23', '> 100 µM (inactive)'),
  ('Cc1cc(NC2=CC(=O)C(=O)c3ccccc32)no1', 'NCI-H23', '1.54 µM (inactive)'),
  ('CSc1ccc(NC(=O)Nc2cc(C)ccn2)cc1', 'NCI-H23', '> 100 µM (inactive)');

Please turn your attention to the following entry.
Exercise: Suppose we examine the compound CC(C)(C)C1(COC(=O)c2ccc(N)cc2)COC1 ; what GI50 value has been reported?
Key: 66.7 µM (inactive)
